- Test system: Yap1 mRNA
- test.method.notes: Antisense inhibition of human Yap1 in A-431 cells by cEt gapmers, single dose (Example 3, RTS36584)
- Type: cell-based
- assay.conditions: Table 26; Yap1 mRNA by 3-10-3 cEt gapmers targeting SEQ ID NO.: 1, and 2; percent of untreated control
Strand notation (5' to 3'): a small letter for the sugar, then the base; units joined by * are phosphorothioate-linked, units joined directly phosphodiester-linked; [ ] holds rarer units or linkages, { } end groups; capitals alone tell only the bases. k = constrained ethyl (cEt); [5mC] = 5-methylcytosine; d = 2'-deoxy (DNA)
test.readout: YAP1 (% UTC)
Numeric only. Scale: % UTC

Answered examples (3):
-- ask Assign YAP1 (% UTC) to the following record: 1074764 (kA*kT*kG*d[5mC]*dT*dA*d[5mC]*d[5mC]*d[5mC]*dA*dA*dT*dA*k[5mC]*kA*kA; antisense) [compound 1074764]
-- reply 18

-- ask Assign YAP1 (% UTC) to the following record: 1075020 (antisense kT*kT*kA*dA*dT*dT*dA*dG*d[5mC]*dA*dT*dT*dA*kG*kA*kG) [compound 1075020]
-- reply 30

-- ask Assign YAP1 (% UTC) to the following record: 1074988 (antisense kA*k[5mC]*k[5mC]*dG*d[5mC]*dG*dG*d[5mC]*dG*dG*dA*dG*dT*kG*kG*kA) [compound 1074988]
-- reply 94

Further cases:
-- ask Assign YAP1 (% UTC) to the following record: 1074380 (kG*kT*k[5mC]*dT*dG*dG*dG*dA*dA*dA*d[5mC]*dG*dG*kT*kT*k[5mC]; antisense) [compound 1074380]
-- reply 11

-- ask Assign YAP1 (% UTC) to the following record: 1075148 (k[5mC]*kG*kG*dA*dA*dA*dA*dA*dA*d[5mC]*dA*d[5mC]*d[5mC]*kT*kA*kG; antisense) [compound 1075148]
-- reply 66

-- ask Assign YAP1 (% UTC) to the following record: 1075436 (antisense k[5mC]*k[5mC]*kT*dT*dA*dA*dA*d[5mC]*dG*dA*dT*dA*dA*kA*kG*kT) [compound 1075436]
-- reply 89
